Measured values drawn from patent US11760762B2 for this set.

- Tested on: CHLA-136
- Test protocol: Neuroblastoma cell viability, Alamar Blue
- Format: cell-based
- Recorded conditions: Homo sapiens, 24 hours incubation
Measurement label: IC50 (µM)
// note: answer is a bare numeric in µM

query: What does the data say about its IC50? Entry: CN(C)C(=O)c1cc2cnc(Nc3ccc(-c4csc5c(=O)cc(N6CCOCC6)oc45)cc3)nc2n1C1CCCC1 [Compound 1]
result: 4.5

---

- Target entity: PI3K-delta (Homo sapiens)
- Construct: Thermo Fisher Scientific-Biosciences Life Sciences Solutions, Madison, WI (contract assay service)
- Sequence (O00329 whole entry): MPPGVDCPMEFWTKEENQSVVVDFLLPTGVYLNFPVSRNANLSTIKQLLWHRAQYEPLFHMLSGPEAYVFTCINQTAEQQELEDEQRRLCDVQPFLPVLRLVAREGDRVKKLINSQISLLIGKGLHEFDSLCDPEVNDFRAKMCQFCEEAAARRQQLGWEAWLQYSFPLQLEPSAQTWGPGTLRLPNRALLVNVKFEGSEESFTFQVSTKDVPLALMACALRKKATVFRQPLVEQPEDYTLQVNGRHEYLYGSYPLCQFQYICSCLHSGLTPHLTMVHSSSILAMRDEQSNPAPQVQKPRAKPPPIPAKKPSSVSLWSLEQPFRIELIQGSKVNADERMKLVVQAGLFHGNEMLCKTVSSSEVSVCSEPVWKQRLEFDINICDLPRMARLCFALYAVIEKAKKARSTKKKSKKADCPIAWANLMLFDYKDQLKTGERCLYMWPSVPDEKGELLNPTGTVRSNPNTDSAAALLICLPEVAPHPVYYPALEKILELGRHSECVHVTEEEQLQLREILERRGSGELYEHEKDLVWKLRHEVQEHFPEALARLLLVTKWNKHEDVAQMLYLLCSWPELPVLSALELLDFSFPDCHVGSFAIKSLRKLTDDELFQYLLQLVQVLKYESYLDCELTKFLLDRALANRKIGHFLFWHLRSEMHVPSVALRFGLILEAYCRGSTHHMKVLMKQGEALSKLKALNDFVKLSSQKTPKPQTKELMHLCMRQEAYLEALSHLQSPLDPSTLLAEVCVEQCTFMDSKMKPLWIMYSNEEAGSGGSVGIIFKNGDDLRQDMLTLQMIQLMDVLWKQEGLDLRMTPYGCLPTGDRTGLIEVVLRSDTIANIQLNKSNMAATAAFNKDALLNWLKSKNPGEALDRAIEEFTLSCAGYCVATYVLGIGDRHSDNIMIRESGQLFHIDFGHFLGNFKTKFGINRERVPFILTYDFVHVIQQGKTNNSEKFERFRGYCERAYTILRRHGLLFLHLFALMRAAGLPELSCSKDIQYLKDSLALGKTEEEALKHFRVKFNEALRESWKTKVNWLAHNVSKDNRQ
- Sequence (P27986 whole entry partner): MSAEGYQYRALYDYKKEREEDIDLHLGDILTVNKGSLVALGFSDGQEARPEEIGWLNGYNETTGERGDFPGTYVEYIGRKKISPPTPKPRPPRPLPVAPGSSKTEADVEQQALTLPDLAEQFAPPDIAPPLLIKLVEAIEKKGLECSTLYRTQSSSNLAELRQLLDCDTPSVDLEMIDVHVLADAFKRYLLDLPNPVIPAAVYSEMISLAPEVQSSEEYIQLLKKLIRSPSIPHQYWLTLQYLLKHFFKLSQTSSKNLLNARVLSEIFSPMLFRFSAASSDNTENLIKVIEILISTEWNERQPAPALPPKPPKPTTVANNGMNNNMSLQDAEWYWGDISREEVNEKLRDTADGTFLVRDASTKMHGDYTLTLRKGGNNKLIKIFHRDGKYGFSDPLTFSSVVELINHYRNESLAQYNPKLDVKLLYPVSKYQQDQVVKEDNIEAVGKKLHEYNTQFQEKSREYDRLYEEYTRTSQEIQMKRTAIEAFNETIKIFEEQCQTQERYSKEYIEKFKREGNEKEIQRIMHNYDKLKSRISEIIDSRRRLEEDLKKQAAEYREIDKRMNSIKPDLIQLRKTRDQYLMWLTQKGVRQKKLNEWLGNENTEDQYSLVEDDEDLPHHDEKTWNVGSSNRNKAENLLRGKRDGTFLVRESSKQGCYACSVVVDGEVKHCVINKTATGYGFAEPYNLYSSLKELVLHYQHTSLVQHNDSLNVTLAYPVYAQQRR
- Test protocol: PI3K inhibition (Thermo Fisher Scientific)
- Recorded conditions: 10-point curve, grouped by potency; read-out: IC50 P13K δ
- Description: PI3K-alpha, PI3K-beta, PI3K-gamma, and PI3K-delta inhibition activity was determined by Thermo Fisher Scientific-Biosciences Life Sciences Solutions, Madison, WI The bromodomain protein inhibition (binding domain 1 and 2 of BRD4) was determined by Reaction Biology Corp., Malvern, PA The cyclin dependent kinase inhibition on proteins such as CDK2, CDK4, CDK6, and CDK9 was determined by Reaction Biology Corp., Malvern, PA. […]
Measurement label: IC50

> print(dat)
                           substance.smiles  measurement.label          result
1  CN(C)C(=O)c1cc2cnc(Nc3ccc(-c4csc5c(=O)cc(N6CCOCC6)oc45)c(C(=O)O)c3)nc2n1C1CCCC1               IC50  100 to 1000 nM
2  CN(C)C(=O)c1cc2cnc(Nc3ccc(-c4csc5c(=O)cc(N6CCOCC6)oc45)cc3)nc2n1C1CCCC1               IC50        < 100 nM
3  COC(=O)c1cc(-c2csc3c(=O)cc(N4CCOCC4)oc23)ccc1Nc1ncc2cc(C(=O)N(C)C)n(C3CCCC3)c2n1               IC50  100 to 1000 nM

Next molecule, please.
query: Requested read-out: IC50. Entry: "Cc1nc2c(F)cc(-c3nc(Nc4ccc(-c5csc6c(=O)cc(N7CCOCC7)oc56)cc4)ncc3F)cc2n1C(C)C"
result: 1000 to 5000 nM
